- Tested on: A. baumannii DSM 105126
- measurement.protocol: MIC 50, broth micro-dilution, DSM strains
- Assay type: cell-based, Acinetobacter baumannii
- condition: Acinetobacter baumannii, DSM105126, read-out: MIC 50
// reported MIC50 per item
// return numeric value only (unit: µM, not printed)

Please review the entries below; each comes with its answer.
compound: N=C(NC[C@@H]1CCNC1)NC1[C@@H](O)C(OC2[C@@H](F)[C@H](O[C@H]3OC(CN)[C@@H](O)CC3N)C(N)C[C@H]2NC(=O)[C@@H](O)CCN)O[C@H](CO)[C@H]1O (some centres unmarked) [ABX5039]
quantity.unit: µM
MIC50: 0.0625
--
compound: N=C(NCCCO)NC1[C@@H](O)C(OC2[C@@H](F)[C@H](O[C@H]3OC(CN)[C@@H](O)CC3N)C(N)C[C@H]2NC(=O)[C@@H](O)CCN)O[C@H](CO)[C@H]1O (some centres unmarked) [ABX5041, Tobra-AHB-F-Gua 3-hydroxy-propyl]
quantity.unit: µM
MIC50: 0.25

Continue with the compound presented below.
Prompt: Which MIC50 is listed for N=C(NCC1CC1)NC1[C@@H](O)C(OC2[C@@H](F)[C@H](O[C@H]3OC(CN)[C@@H](O)CC3N)C(N)C[C@H]2NC(=O)[C@@H](O)CCN)O[C@H](CO)[C@H]1O (some centres unmarked) [ABX5027, Tobra-AHB-F-Gua cyclopropylmethyl] ?
Completion: 0.125

====

Overview of reported MIC90 across a group of molecules:
- System: clinical isolates of methicillin-resistant Staphylococcus aureus (MRSA)
- measurement.protocol: MIC determination at Fidelta, clinical isolates
- Assay type: cell-based
- condition: MRSA-1999, Skin
- Source text: 3.4.2 MIC Determination at Fidelta (Croatia) Tested reference compounds. Amikacin sulfate (Cat. No. 01693, Chem-Impex), Gentamicin sulfate (Cat. No. G4918, Sigma Aldrich), Ceftazidime Pentahydrate (Cat. No. 1098130, USP), Meropenem (Cat. No. 1392454, USP), Tobramycin (Cat. No. 1667508, USP). Microbial strains. […]
The reply should contain only the number, in µg/mL.

molecule: C[C@@H](O)[C@H]1C(=O)N2C(C(=O)O)=C(S[C@@H]3CN[C@H](C(=O)N(C)C)C3)[C@H](C)[C@H]12 [Meropenem, meropenem, reference compound]
target.desc: clinical isolates of methicillin-resistant Staphylococcus aureus (MRSA)
MIC90 [µg/mL]: 64
//
molecule: N=C(N)NC1C(O)[C@@H](CO)OC(OC2C(F)[C@H](O[C@H]3OC(CN)[C@@H](O)CC3N)C(N)C[C@H]2NC(=O)[C@@H](O)CCN)[C@@H]1O (stereo partly drawn) [ABX5006, Tobra-AHB-F-Gua]
target.desc: clinical isolates of methicillin-resistant Staphylococcus aureus (MRSA)
MIC90 [µg/mL]: 0.5
//
molecule: N=C(NC[C@@H]1CCNC1)NC1[C@@H](O)C(OC2[C@@H](F)[C@H](O[C@H]3OC(CN)[C@@H](O)CC3N)C(N)C[C@H]2NC(=O)[C@@H](O)CCN)O[C@H](CO)[C@H]1O (stereo partly drawn) [ABX5039]
target.desc: clinical isolates of methicillin-resistant Staphylococcus aureus (MRSA)
MIC90 [µg/mL]: 0.25

Prompt: What is its MIC90 for clinical isolates of methicillin-resistant Staphylococcus aureus (MRSA)? Entry: N=C(NC[C@@H]1CCCN1)NC1[C@@H](O)C(OC2[C@@H](F)[C@H](O[C@H]3OC(CN)[C@@H](O)CC3N)C(N)C[C@H]2NC(=O)[C@@H](O)CCN)O[C@H](CO)[C@H]1O (stereo partly drawn) [ABX5026]
Completion: 0.5

Prompt: Record NCC[C@H](O)C(=O)N[C@@H]1C[C@H](N)[C@@H](O[C@H]2O[C@H](CN)[C@@H](O)[C@H](O)[C@H]2O)[C@H](O)[C@H]1O[C@H]1O[C@H](CO)[C@@H](O)[C@H](N)[C@H]1O [Amikacin, amikacin, reference compound] : what is its MIC90 with clinical isolates of methicillin-resistant Staphylococcus aureus (MRSA)?
Completion: 8

====

- Test system: A. baumannii DSM 105126
- measurement.protocol: MIC 50, broth micro-dilution, DSM strains
- Format: cell-based, Acinetobacter baumannii
- condition: Acinetobacter baumannii, DSM105126, read-out: MIC 50
The reader will find reported MIC50 values listed item by item below.
All answers are understood in µM, so give the number only.

Reference set, count: 2
molecule: N=C(NCCO)NC1[C@@H](O)C(OC2[C@@H](F)[C@H](O[C@H]3OC(CN)[C@@H](O)CC3N)C(N)C[C@H]2NC(=O)[C@@H](O)CCN)O[C@H](CO)[C@H]1O (some centres unmarked) [ABX5029, Tobra-AHB-F-Gua 2-hydroxy-ethyl]
MIC50 / µM: 0.0625
--
molecule: N=C(NCC1CCOC1)NC1[C@@H](O)C(OC2[C@@H](F)[C@H](O[C@H]3OC(CN)[C@@H](O)CC3N)C(N)C[C@H]2NC(=O)[C@@H](O)CCN)O[C@H](CO)[C@H]1O (some centres unmarked)
MIC50 / µM: 0.5

Now, please, on to the next molecule.
Prompt: Form field: MIC50 recorded for N=C(NCc1ccncc1)NC1[C@@H](O)C(OC2[C@@H](F)[C@H](O[C@H]3OC(CN)[C@@H](O)CC3N)C(N)C[C@H]2NC(=O)[C@@H](O)CCN)O[C@H](CO)[C@H]1O (some centres unmarked) with A. baumannii DSM 105126 (enter value)
Completion: 0.5

====

- Test system: E. coli C1162
Each entry below lists one item and its recorded MIC90 value.
Write the number in µg/mL without appending the unit.

Consider the worked cases shown below.
compound: NCC[C@H](O)C(=O)N[C@@H]1C[C@H](N)[C@@H](O[C@H]2O[C@H](CN)[C@@H](O)[C@H](O)[C@H]2O)[C@H](O)[C@H]1O[C@H]1O[C@H](CO)[C@@H](O)[C@H](N)[C@H]1O [Amikacin, amikacin, reference compound]
quantity.name: MIC90
quantity.unit: µg/mL
value: 4
--
compound: N=C(N)NC1C(O)[C@@H](CO)OC(OC2C(F)[C@H](O[C@H]3OC(CN)[C@@H](O)CC3N)C(N)C[C@H]2NC(=O)[C@@H](O)CCN)[C@@H]1O (some centres unmarked)
quantity.name: MIC90
quantity.unit: µg/mL
value: 1
--
compound: CN[C@@H]1[C@@H](O[C@H]2O[C@H](CO)[C@@H](N)[C@H](O)[C@H]2O)OC2C[C@@H](N)[C@@H](O[C@H]3[C@H](O)[C@@H](O)[C@H](N)C[C@@H]3N)OC2[C@@H]1O (some centres unmarked) [Apramycin, apramycin, reference compound]
quantity.name: MIC90
quantity.unit: µg/mL
value: 8
--
compound: N=C(NC[C@@H]1CCNC1)NC1[C@@H](O)C(OC2[C@@H](F)[C@H](O[C@H]3OC(CN)[C@@H](O)CC3N)C(N)C[C@H]2NC(=O)[C@@H](O)CCN)O[C@H](CO)[C@H]1O (some centres unmarked)
quantity.name: MIC90
quantity.unit: µg/mL
value: 1

Switching to the query record.
Prompt: Request: MIC90, test system E. coli C1162, entry N=C(NC[C@@H]1CCCN1)NC1[C@@H](O)C(OC2[C@@H](F)[C@H](O[C@H]3OC(CN)[C@@H](O)CC3N)C(N)C[C@H]2NC(=O)[C@@H](O)CCN)O[C@H](CO)[C@H]1O (some centres unmarked)
Completion: 1

====

- Tested on: Enterobacter cloacae 3MRGN (clinical bronchial aspirate isolate)
- measurement.protocol: MIC 50, broth micro-dilution, clinical isolate
- Format: cell-based
- condition: Enterobacter cloacae, E. Cloacae clinical isolate; read-out: MIC 50
Measured MIC50 values are reported for all entries that follow.
Value expressed in µM; do not type the unit.

Look over these answered cases.
molecule: N=C(NCCCO)NC1[C@@H](O)C(OC2[C@@H](F)[C@H](O[C@H]3OC(CN)[C@@H](O)CC3N)C(N)C[C@H]2NC(=O)[C@@H](O)CCN)O[C@H](CO)[C@H]1O (stereo partly drawn) [ABX5041, Tobra-AHB-F-Gua 3-hydroxy-propyl]
MIC50 [µM]: 1

molecule: N=C(NCc1ccncc1)NC1[C@@H](O)C(OC2[C@@H](F)[C@H](O[C@H]3OC(CN)[C@@H](O)CC3N)C(N)C[C@H]2NC(=O)[C@@H](O)CCN)O[C@H](CO)[C@H]1O (stereo partly drawn)
MIC50 [µM]: 1

molecule: N=C(NC[C@@H]1CCCN1)NC1[C@@H](O)C(OC2[C@@H](F)[C@H](O[C@H]3OC(CN)[C@@H](O)CC3N)C(N)C[C@H]2NC(=O)[C@@H](O)CCN)O[C@H](CO)[C@H]1O (stereo partly drawn)
MIC50 [µM]: 0.25

Okay, next one:
Prompt: Looking for the measured MIC50 of N=C(N)NC1[C@@H](O)C(OC2[C@@H](F)[C@H](O[C@H]3OC(CNCCO)[C@@H](O)CC3N)C(N)C[C@H]2NC(=O)[C@@H](O)CCN)O[C@H](CO)[C@H]1O (stereo partly drawn) [ABX5045, 6N-2-hydroxy-ethyl-Tobra-AHB-F-Gua] , can you help?
Completion: 1
